tested.target: T1, ubiquitin mutein 200053
T1 construct: also called Affilin-200053
assay: SPR (Biacore 3000), ligand multimer immobilised, ubiquitin mutein in solution
Method: Purified proteins were immobilized via C-terminal Cysteine on a CM-5 sensor chip (GE Healthcare) using NHS/EDC after PDEA activation with a Biacore 3000 system (GE Healthcare). The chip was equilibrated with SPR running buffer (PBS 0.05% Tween pH 7.3). […] This change in the refractive index was measured in real time and plotted as response or resonance units versus time. […]
reported.endpoint: Kd (nM)
Give just the number in nM; leave the unit off.

The value of Kd measured for the binder SEQ21 trimer (215997) (designed binder) NAARSDEAQYSAWAEIEALPNLTEMQKDQFIWSLMFDPSVSKEVLGEAQKLNDSQAPKQAPKVDAKFDQAPKVDAKFDNAARSDEAQYSAWAEIEALPNLTEMQKDQFIWSLMFDPSVSKEVLGEAQKLNDSQAPKQAPKVDAKFDQAPKVDAKFDNAARSDEAQYSAWAEIEALPNLTEMQKDQFIWSLMFDPSVSKEVLGEAQKLNDSQAPKC turned out to be 8.5

Just for reference, patent US20240309056A1 is where these values come from.
